Plasmodium falciparum IC50 data
Please state the figure in nM; there is no need to write the unit.

INSERT INTO measurements (molecule, quantity_name, result_number) VALUES
  ('CCCNC(=O)CCC(C)C1CC[C@H]2[C@@H]3[C@H](OC(C)=O)C[C@@H]4CC5(CC[C@]4(C)[C@H]3C[C@H](OC(C)=O)[C@]12C)OOC1(CCC(CC)CC1)OO5 (mixture of isomers; 23)', 'IC50', 8.34);

Switching to the query record.
Query: # lookup: IC50 of CCC1CCC2(CC1)OOC1(CC[C@@]3(C)[C@H](C[C@@H](OC(C)=O)[C@@H]4[C@@H]3C[C@H](OC(C)=O)[C@]3(C)C(C(C)CCC(=O)NC)CC[C@@H]43)C1)OO2 (mixture of isomers; 25)
Result: 27.9

* * *

Plasmodium falciparum pIC50 data
Field pIC50 (float): negative decimal logarithm of the concentration in molar.

INSERT INTO measurements (compound, result_number) VALUES
  ('CCCNC(=O)CCC(C)C1CC[C@H]2[C@@H]3[C@H](OC(C)=O)C[C@@H]4CC5(CC[C@]4(C)[C@H]3C[C@H](OC(C)=O)[C@]12C)OOC1(CCC(CC)CC1)OO5 (mixture of isomers; 23)', 8.35);

Switching to the query record.
Query: # lookup: pIC50 of CCC1CCC2(CC1)OOC1(CC[C@@]3(C)[C@H](C[C@@H](OC(C)=O)[C@@H]4[C@@H]3C[C@H](OC(C)=O)[C@]3(C)C(C(C)CCC(=O)OC)CC[C@@H]43)C1)OO2 (single isomer, unassigned; 3i)
Result: 7.81

* * *

Plasmodium falciparum pIC50 data
Field pIC50 (float): negative decimal logarithm of the concentration in molar.

INSERT INTO results (molecule, result_number) VALUES
  ('CCCNC(=O)CCC(C)C1CC[C@H]2[C@@H]3[C@H](OC(C)=O)C[C@@H]4CC5(CC[C@]4(C)[C@H]3C[C@H](OC(C)=O)[C@]12C)OOC1(CCC(C)CC1)OO5 (stereo in doubt; 15)', 8.49);

Switching to the query record.
Query: Param readout= pIC50; system= Plasmodium falciparum; entry= COC(=O)CCC(C)C1CC[C@H]2[C@@H]3[C@H](OC(C)=O)C[C@@H]4CC5(CC[C@]4(C)[C@H]3C[C@H](OC(C)=O)[C@]12C)OOC1(CCC(C)CC1)OO5 (stereo in doubt; 3h) ; returns value.
Result: 7.61

* * *

# System: Plasmodium falciparum
QUANTITY_NAME: pIC50
Field pIC50 (float): negative decimal logarithm of the concentration in molar.

// known answers, use as guide
INSERT INTO results (compound, result_number) VALUES
  ('CNC(=O)CCC(C)C1CC[C@H]2[C@@H]3[C@H](OC(C)=O)C[C@@H]4CC5(CC[C@]4(C)[C@H]3C[C@H](OC(C)=O)[C@]12C)OOC1(CCC(C)CC1)OO5 (stereo in doubt; 17)', 7.78),
  ('CC(=O)O[C@H]1C[C@H]2[C@@H]([C@H](OC(C)=O)C[C@@H]3CC4(CC[C@@]32C)OOC2(CCC(C)CC2)OO4)[C@@H]2CCC(C(C)CCC(=O)O)[C@@]12C (stereo in doubt; 4h)', 7.51),
  ('CCC1CCC2(CC1)OOC1(CC[C@@]3(C)[C@H](C[C@@H](OC(C)=O)[C@@H]4[C@@H]3C[C@H](OC(C)=O)[C@]3(C)C(C(C)CCC(N)=O)CC[C@@H]43)C1)OO2 (mixture of isomers; 24)', 7.51);

Switching to the query record.
Query: Param readout= pIC50; system= Plasmodium falciparum; entry= COC(=O)CCC(C)C1CC[C@H]2[C@@H]3[C@H](OC(C)=O)C[C@@H]4CC5(CC[C@]4(C)[C@H]3C[C@H](OC(C)=O)[C@]12C)OOC1(CCC(C(C)(C)C)CC1)OO5 (stereo in doubt; 3l) ; returns value.
Result: 7.29

* * *

Plasmodium falciparum pIC50 data
Field pIC50 (float): negative decimal logarithm of the concentration in molar.

// known answers, use as guide
INSERT INTO results (compound, quantity_name, result_number) VALUES
  ('CC(=O)O[C@H]1C[C@H]2[C@@H]([C@H](OC(C)=O)C[C@@H]3CC4(CC[C@@]32C)OOC2(CCC(C)CC2)OO4)[C@@H]2CCC(C(C)CCC(=O)O)[C@@]12C (stereo in doubt; 4g)', 'pIC50', 9.01),
  ('CC(=O)O[C@H]1C[C@H]2[C@@H]([C@H](OC(C)=O)C[C@@H]3CC4(CC[C@@]32C)OOC2(CCC(C)CC2)OO4)[C@@H]2CCC(C(C)CCC(N)=O)[C@@]12C (stereo in doubt; 16)', 'pIC50', 7.85),
  ('COC(=O)CCC(C)C1CC[C@H]2[C@@H]3[C@H](OC(C)=O)C[C@@H]4CC5(CC[C@]4(C)[C@H]3C[C@H](OC(C)=O)[C@]12C)OOC1(CCC(C(C)(C)C)CC1)OO5 (stereo in doubt; 3k)', 'pIC50', 7.28);

Switching to the query record.
Query: # lookup: pIC50 of CNC(=O)CCC(C)C1CC[C@H]2[C@@H]3[C@H](OC(C)=O)C[C@@H]4CC5(CC[C@]4(C)[C@H]3C[C@H](OC(C)=O)[C@]12C)OOC1(CCC(C)CC1)OO5 (stereo in doubt; 17)
Result: 7.93

* * *

Plasmodium falciparum IC50 data
Please state the figure in nM; there is no need to write the unit.

// known answers, use as guide
INSERT INTO results (compound, unit_tag, result_number) VALUES
  ('CCNC(=O)CCC(C)C1CC[C@H]2[C@@H]3[C@H](OC(C)=O)C[C@@H]4CC5(CC[C@]4(C)[C@H]3C[C@H](OC(C)=O)[C@]12C)OOC1(CCC(C)CC1)OO5 (stereo in doubt; 18)', 'nM', 9.93),
  ('CCC1CCC2(CC1)OOC1(CC[C@@]3(C)[C@H](C[C@@H](OC(C)=O)[C@@H]4[C@@H]3C[C@H](OC(C)=O)[C@]3(C)C(C(C)CCC(N)=O)CC[C@@H]43)C1)OO2 (mixture of isomers; 20)', 'nM', 10.7),
  ('COC(=O)CCC(C)C1CC[C@H]2[C@@H]3[C@H](OC(C)=O)C[C@@H]4CC5(CC[C@]4(C)[C@H]3C[C@H](OC(C)=O)[C@]12C)OOC1(CCC(C)CC1)OO5 (stereo in doubt; 3h)', 'nM', 13.2);

Switching to the query record.
Query: # lookup: IC50 of CCC1CCC2(CC1)OOC1(CC[C@@]3(C)[C@H](C[C@@H](OC(C)=O)[C@@H]4[C@@H]3C[C@H](OC(C)=O)[C@]3(C)C(C(C)CCC(=O)O)CC[C@@H]43)C1)OO2 (stereo in doubt; 4j)
Result: 14.4

* * *

Plasmodium falciparum pIC50 data
Field pIC50 (float): negative decimal logarithm of the concentration in molar.

INSERT INTO measurements (molecule, target_or_test_system, result_number) VALUES
  ('CCC1CCC2(CC1)OOC1(CC[C@@]3(C)[C@H](C[C@@H](OC(C)=O)[C@@H]4[C@@H]3C[C@H](OC(C)=O)[C@]3(C)C(C(C)CCC(=O)NC)CC[C@@H]43)C1)OO2 (mixture of isomers; 25)', 'Plasmodium falciparum', 8.21),
  ('COC(=O)CCC(C)C1CC[C@H]2[C@@H]3[C@H](OC(C)=O)C[C@@H]4CC5(CC[C@]4(C)[C@H]3C[C@H](OC(C)=O)[C@]12C)OOC1(CCC(C)CC1)OO5 (stereo in doubt; 3g)', 'Plasmodium falciparum', 8.30),
  ('CCCNC(=O)CCC(C)C1CC[C@H]2[C@@H]3[C@H](OC(C)=O)C[C@@H]4CC5(CC[C@]4(C)[C@H]3C[C@H](OC(C)=O)[C@]12C)OOC1(CCC(C)CC1)OO5 (stereo in doubt; 15)', 'Plasmodium falciparum', 8.42);

Query: # lookup: pIC50 of CCCNC(=O)CCC(C)C1CC[C@H]2[C@@H]3[C@H](OC(C)=O)C[C@@H]4CC5(CC[C@]4(C)[C@H]3C[C@H](OC(C)=O)[C@]12C)OOC1(CCC(CC)CC1)OO5 (mixture of isomers; 27)
Result: 6.91

* * *

Plasmodium falciparum pIC50 data
Field pIC50 (float): negative decimal logarithm of the concentration in molar.

// known answers, use as guide
INSERT INTO measurements (compound, quantity_name, result_number) VALUES
  ('CNC(=O)CCC(C)C1CC[C@H]2[C@@H]3[C@H](OC(C)=O)C[C@@H]4CC5(CC[C@]4(C)[C@H]3C[C@H](OC(C)=O)[C@]12C)OOC1(CCC(C)CC1)OO5 (stereo in doubt; 13)', 'pIC50', 8.44),
  ('CCNC(=O)CCC(C)C1CC[C@H]2[C@@H]3[C@H](OC(C)=O)C[C@@H]4CC5(CC[C@]4(C)[C@H]3C[C@H](OC(C)=O)[C@]12C)OOC1(CCC(CC)CC1)OO5 (mixture of isomers; 26)', 'pIC50', 7.74),
  ('CCCNC(=O)CCC(C)C1CC[C@H]2[C@@H]3[C@H](OC(C)=O)C[C@@H]4CC5(CC[C@]4(C)[C@H]3C[C@H](OC(C)=O)[C@]12C)OOC1(CCC(C)CC1)OO5 (stereo in doubt; 19)', 'pIC50', 7.08);

Switching to the query record.
Query: Param readout= pIC50; system= Plasmodium falciparum; entry= CC(=O)O[C@H]1C[C@H]2[C@@H]([C@H](OC(C)=O)C[C@@H]3CC4(CC[C@@]32C)OOC2(CCC(C)CC2)OO4)[C@@H]2CCC(C(C)CCC(N)=O)[C@@]12C (stereo in doubt; 12) ; returns value.
Result: 9.24

// data source = ChEMBL document CHEMBL1135585
